Tested on: DU-4475
Assay: normalised viability (% of control), CellTiter-Blue; higher = more viable cells (about 100 = DMSO control)
Conditions: 10000 nM; incubation time: 72 h
# Lookup of reported normalised viability keyed by entry
endpoint: normalised viability (%)

- compound: "COc1cc([C@@H]2c3cc4c(cc3[C@@H](O[C@@H]3O[C@@H]5CO[C@@H](c6cccs6)O[C@H]5[C@H](O)[C@H]3O)[C@H]3COC(=O)[C@H]23)OCO4)cc(OC)c1O [Teniposide]"
  targetOfAssay: "DU-4475"
  endpoint: "normalised viability"
  numericReadout: -1.93
- compound: "C=CC(=O)Nc1cc2c(Nc3ccc(F)c(Cl)c3)ncnc2cc1OCCCN1CCOCC1"
  targetOfAssay: "DU-4475"
  endpoint: "normalised viability"
  numericReadout: 6.91
- compound: "Cc1ccc(-c2cc(C(F)(F)F)nn2-c2ccc(S(N)(=O)=O)cc2)cc1"
  targetOfAssay: "DU-4475"
  endpoint: "normalised viability"
  numericReadout: 68.5
- compound: "CC1=C(/C=C/C(C)=C/C=C/C(C)=C/C(=O)O)C(C)(C)CCC1"
  targetOfAssay: "DU-4475"
  endpoint: "normalised viability"
  numericReadout: 94.3

====

System: CAL-120
Assay: normalised viability (% of control), CellTiter-Blue; higher = more viable cells (about 100 = DMSO control)
Conditions: 1000 nM; incubation time: 72 h
endpoint: normalised viability

- compound: "C=CC(=O)N1CCC[C@@H](n2nc(-c3ccc(Oc4ccccc4)cc3)c3c(N)ncnc32)C1"
  result: "97%"
- compound: "Cc1cnc(NC(=O)Nc2cc(Br)c(C)cc2OC[C@@H]2CNCCO2)cn1"
  result: "90.1%"
- compound: "Nc1nc(F)nc2c1ncn2[C@@H]1O[C@H](CO)[C@@H](O)[C@@H]1O [Fludarabine]"
  result: "78.5%"
- compound: "N#Cc1ccc(C(c2ccc(C#N)cc2)n2cncn2)cc1 [Letrozole]"
  result: "86.6%"
- compound: "O=C(O)C(=O)O.[NH-][C@@H]1CCCC[C@H]1[NH-].[Pt+2] [Oxaliplatin]"
  result: "93.2%"
- compound: "O=C(/C=C/c1cccnc1)NCCCCC1CCN(C(=O)c2ccccc2)CC1 [FK-866]"
  result: "23.3%"
- compound: "Nc1ccccc1NC(=O)c1ccc(CNC(=O)OCc2cccnc2)cc1 [Entinostat]"
  result: "57.9%"

====

# Lookup of reported normalised viability keyed by entry
Test system: MDA-MB-436
Test: normalised viability (% of control), CellTiter-Blue; higher = more viable cells (about 100 = DMSO control)
Conditions: 100 nM; incubation time: 72 h

- sampleSmiles: "C=CC(=O)N1CCC[C@@H](n2nc(-c3ccc(Oc4ccccc4)cc3)c3c(N)ncnc32)C1"
  targetOfAssay: "MDA-MB-436"
  normalised viability, %: 85.8
- sampleSmiles: "CC[C@@H]1C(=O)N(C)c2cnc(Nc3ccc(C(=O)NC4CCN(C)CC4)cc3OC)nc2N1C1CCCC1"
  targetOfAssay: "MDA-MB-436"
  normalised viability, %: 65.3
- sampleSmiles: "COc1cc2c(Oc3ccc4[nH]c(C)cc4c3F)ncnc2cc1OCCCN1CCCC1"
  targetOfAssay: "MDA-MB-436"
  normalised viability, %: 92
- sampleSmiles: "O=C(/C=C/c1cccnc1)NCCCCC1CCN(C(=O)c2ccccc2)CC1"
  targetOfAssay: "MDA-MB-436"
  normalised viability, %: 23.5

====

Test system: CAL-85-1
Experiment: normalised viability (% of control), CellTiter-Blue; higher = more viable cells (about 100 = DMSO control)
Settings: 300 nM; incubation time: 72 h
endpoint: normalised viability (%)

- compound: "CCCCC(=O)OCC(=O)[C@]1(O)Cc2c(O)c3c(c(O)c2[C@@H](O[C@H]2C[C@H](NC(=O)C(F)(F)F)[C@H](O)[C@H](C)O2)C1)C(=O)c1c(OC)cccc1C3=O [Valrubicin]"
  endpoint: "normalised viability"
  numericReadout: 75.1
- compound: "COc1cc([C@@H]2c3cc4c(cc3[C@@H](O[C@@H]3O[C@@H]5CO[C@@H](c6cccs6)O[C@H]5[C@H](O)[C@H]3O)[C@H]3COC(=O)[C@H]23)OCO4)cc(OC)c1O [Teniposide]"
  endpoint: "normalised viability"
  numericReadout: 82.6
- compound: "C1CN1c1nc(N2CC2)nc(N2CC2)n1 [Triethylenemelamine]"
  endpoint: "normalised viability"
  numericReadout: 99
- compound: "NCCCNCCSP(=O)(O)O [Amifostine]"
  endpoint: "normalised viability"
  numericReadout: 93.8
- compound: "O=C(O)C1(C(=O)O)CCC1.[NH2-].[NH2-].[Pt+2] [Carboplatin]"
  endpoint: "normalised viability"
  numericReadout: 86.1
- compound: "Nc1nc2[nH]cc(CCc3ccc(C(=O)N[C@@H](CCC(=O)O)C(=O)O)cc3)c2c(=O)[nH]1 [Pemetrexed]"
  endpoint: "normalised viability"
  numericReadout: 107
- compound: "CC1=C(/C=C/C(C)=C/C=C/C(C)=C/C(=O)O)C(C)(C)CCC1 [Tretinoin]"
  endpoint: "normalised viability"
  numericReadout: 96.6
- compound: "CCc1cncnc1N1CCN(Cc2nc3ccc(C(F)(F)F)cc3[nH]2)CC1"
  endpoint: "normalised viability"
  numericReadout: 89.8

====

# Lookup of reported normalised response keyed by entry
System: HCC1599
Assay: normalised response (% of control), CellTiter-Glo; higher = more viable cells (100 = DMSO, 0 = benzethonium chloride kill control)
Details: incubation time: 72 h

- compound: "COc1cc2c(Oc3ccc4[nH]c(C)cc4c3F)ncnc2cc1OCCCN1CCCC1 [Cediranib] (10 nM)"
  targetOfAssay: "HCC1599"
  normalised response: "88.5%"
- compound: "N#Cc1ccc(C(c2ccc(C#N)cc2)n2cncn2)cc1 [Letrozole] (100 nM)"
  targetOfAssay: "HCC1599"
  normalised response: "95.9%"
- compound: "Cc1ccc(-c2cc(C(F)(F)F)nn2-c2ccc(S(N)(=O)=O)cc2)cc1 [Celecoxib] (100 nM)"
  targetOfAssay: "HCC1599"
  normalised response: "98.1%"
- compound: "Cc1cnc(NC(=O)Nc2cc(Br)c(C)cc2OC[C@@H]2CNCCO2)cn1 [Rabusertib] (10 nM)"
  targetOfAssay: "HCC1599"
  normalised response: "106%"
- compound: "O=C(O)CCCCC(CCSCc1ccccc1)SCc1ccccc1 (stereo not drawn) [CPI-613] (100 nM)"
  targetOfAssay: "HCC1599"
  normalised response: "114%"
- compound: "C=CC(=O)Nc1cc2c(Nc3ccc(F)c(Cl)c3)ncnc2cc1OCCCN1CCOCC1 [Canertinib] (100 nM)"
  targetOfAssay: "HCC1599"
  normalised response: "85.5%"
- compound: "CC1=C(/C=C/C(C)=C/C=C/C(C)=C/C(=O)O)C(C)(C)CCC1 [Tretinoin] (100 nM)"
  targetOfAssay: "HCC1599"
  normalised response: "103%"
- compound: "C[C@H]1C[C@@H]2[C@H]([C@@H](O)C[C@@]3(C)[C@H]2CC[C@]3(O)C(=O)CO)[C@@]2(C)C=CC(=O)C=C12 [Methylprednisolone] (100 nM)"
  targetOfAssay: "HCC1599"
  normalised response: "97.9%"

====

System: MDA-MB-453
Test: normalised response (% of control), CellTox Green; higher = less cell death (100 = DMSO, 0 = benzethonium chloride kill control)
Conditions: incubation time: 72 h
# Lookup of reported normalised response keyed by entry
endpoint: normalised response

- molecule: "COc1cc2c(NC3CCN(C(C)C)CC3)nc(C3CCCCC3)nc2cc1OCCCN1CCCC1 [UNC0638] (1000 nM)"
  result: "95.8%"
- molecule: "Nc1ccccc1NC(=O)c1ccc(CNC(=O)OCc2cccnc2)cc1 [Entinostat] (1000 nM)"
  result: "102%"
- molecule: "COc1cc([C@@H]2c3cc4c(cc3[C@@H](O[C@@H]3O[C@@H]5CO[C@@H](c6cccs6)O[C@H]5[C@H](O)[C@H]3O)[C@H]3COC(=O)[C@H]23)OCO4)cc(OC)c1O [Teniposide] (100 nM)"
  result: "107%"
- molecule: "Nc1ccccc1NC(=O)c1ccc(CNC(=O)OCc2cccnc2)cc1 [Entinostat] (10000 nM)"
  result: "90.6%"
- molecule: "N#Cc1ccc(C(c2ccc(C#N)cc2)n2cncn2)cc1 [Letrozole] (100 nM)"
  result: "100%"
- molecule: "CCCCC(=O)OCC(=O)[C@]1(O)Cc2c(O)c3c(c(O)c2[C@@H](O[C@H]2C[C@H](NC(=O)C(F)(F)F)[C@H](O)[C@H](C)O2)C1)C(=O)c1c(OC)cccc1C3=O [Valrubicin] (500 nM)"
  result: "131%"
- molecule: "Nc1ncn([C@H]2C[C@H](O)[C@@H](CO)O2)c(=O)n1 [Decitabine] (1000 nM)"
  result: "84.1%"
- molecule: "Oc1ncc(N(CCCl)CCCl)c(O)n1 [Uracil mustard] (100 nM)"
  result: "110%"
- molecule: "CCCCC(=O)OCC(=O)[C@]1(O)Cc2c(O)c3c(c(O)c2[C@@H](O[C@H]2C[C@H](NC(=O)C(F)(F)F)[C@H](O)[C@H](C)O2)C1)C(=O)c1c(OC)cccc1C3=O [Valrubicin] (50 nM)"
  result: "108%"
- molecule: "C[C@H]1C[C@@H]2[C@H]([C@@H](O)C[C@@]3(C)[C@H]2CC[C@]3(O)C(=O)CO)[C@@]2(C)C=CC(=O)C=C12 [Methylprednisolone] (1000 nM)"
  result: "98.5%"
- molecule: "CC[C@H](C)C(=O)O[C@H]1C[C@H](O)C=C2C=C[C@H](C)[C@H](CC[C@@H](O)C[C@@H](O)CC(=O)O)[C@H]21 [Pravastatin] (10000 nM)"
  result: "94.4%"
- molecule: "CC(=O)Nc1cccc(-n2c(=O)n(C3CC3)c(=O)c3c(Nc4ccc(I)cc4F)n(C)c(=O)c(C)c32)c1 [Trametinib] (25 nM)"
  result: "111%"
- molecule: "Nc1ncn([C@H]2C[C@H](O)[C@@H](CO)O2)c(=O)n1 [Decitabine] (100 nM)"
  result: "95.8%"
